As shown below, each of these compounds has a reported IC50 value.
assayedSystem: CYP2C9 (Homo sapiens)
Construct: 150-donor pooled human liver microsomes (purchased from Corning, Cat. No. 452117); tissue Corning 452117; host or cells: 150-donor pooled human liver microsomes
Sequence (P11712 whole entry): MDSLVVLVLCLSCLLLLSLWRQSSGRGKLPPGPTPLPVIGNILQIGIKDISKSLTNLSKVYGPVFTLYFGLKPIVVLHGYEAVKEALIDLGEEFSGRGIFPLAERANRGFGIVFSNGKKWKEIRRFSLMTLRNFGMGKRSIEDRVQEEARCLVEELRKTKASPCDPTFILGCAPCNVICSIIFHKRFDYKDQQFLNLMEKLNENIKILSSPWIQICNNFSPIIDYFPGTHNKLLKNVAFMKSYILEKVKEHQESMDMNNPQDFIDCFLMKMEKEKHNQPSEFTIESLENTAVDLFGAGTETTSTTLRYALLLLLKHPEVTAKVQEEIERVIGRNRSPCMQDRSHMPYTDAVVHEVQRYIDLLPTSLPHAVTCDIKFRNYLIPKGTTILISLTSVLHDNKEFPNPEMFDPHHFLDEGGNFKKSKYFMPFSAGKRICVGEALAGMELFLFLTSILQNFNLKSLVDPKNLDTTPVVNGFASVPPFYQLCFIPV
protocolSummary: CYP inhibition assay in pooled human liver microsomes (diclofenac sodium)
Assay type: in vitro ADME
appliedConditions: human liver microsomes 0.2 mg/mL, substrate diclofenac sodium; read-out: CYP 2C9 (μM) IC50
Response body: numeric value in µM, unit text excluded.

compound: COC(=O)N1CCO[C@@H](Cc2c(-c3c(F)cc(N4CCCC4=O)cc3F)nc3cc(C)ccn23)C1
assayedSystem: CYP2C9 (Homo sapiens)
experimentalEndpoint: IC50
assayResult: 1.48

compound: COC(=O)N1CCOC(Cn2c(-c3c(F)cc(N4CCCC4=O)cc3F)nc3cc(C)ccc32)C1 (stereo not shown)
assayedSystem: CYP2C9 (Homo sapiens)
experimentalEndpoint: IC50
assayResult: 3.06

compound: [2H]C([2H])([2H])c1ccc2c(c1)nc(-c1c(F)cc(N3CCCC3=O)cc1F)n2C[C@H]1CN(C(C)=O)CCO1
assayedSystem: CYP2C9 (Homo sapiens)
experimentalEndpoint: IC50
assayResult: 21.9

Field: next compound
Query CC(=O)N1CCOC(Cn2c(-c3c(F)cc(N4CCCC4=O)cc3F)nc3cc(C)ccc32)C1 (stereo in doubt) on CYP2C9 (Homo sapiens); IC50 returned: 21.7
